The entries below are paired with their reported Potency.
- ASSAY COMMENT: qHTS of Nrf2 Activators: Hit Validation in Primary Assay
- CONDITION LABEL: Nrf2/ARE reporter cell assay; activation; series mostly up to 46.1 µM
The campaign covered roughly 1,100 compounds. About 860 (78%) were called active. Another 19% or so got no clear call; they are omitted. So high a share suggests a set chosen from earlier hits. The list shows a part of the results.

Answered cases to consult:
COC(=O)c1sccc1NC(=O)c1csc(C)c1 :: 4.61 µM (active)
O=C1N/C(=N\N=C\c2ccco2)SC1Cc1ccc(F)cc1 (centres undefined) :: 0.731 µM (active)
Cn1ccsc1=NC(=O)c1ccc([N+](=O)[O-])o1 :: 5.17 µM (active)
O=C(Nc1cccc([N+](=O)[O-])c1)c1[nH]ncc1Cl :: 5.8 µM (active)
N#Cc1ccccc1N/C=C/C(=O)c1ccc(Cl)cc1 :: 2.31 µM (active)

Data point: `O=C(Nc1nc(=O)c2ccccc2s1)c1ccccc1` ; Potency = 0.731 µM (active)

Data point: `O=C1C(=Cc2ccco2)CCCC1=Cc1ccco1` ; Potency = 3.26 µM (active)

Data point: `CSc1nnc(-c2ccco2)c(-c2ccco2)n1` ; Potency = 11.6 µM (active)

Data point: `O=C(NNC(=O)c1sccc1-n1cccc1)c1cccc(Cl)c1` ; Potency = 2.59 µM (active)

Data point: `Cc1cc(O)c(NC(=O)c2cc([N+](=O)[O-])ccc2Cl)cc1C` ; Potency = 2.31 µM (active)

Data point: `COc1cc2c(cc1NC(=O)c1cccc(F)c1)CCCC2` ; Potency = 2.59 µM (active)

Data point: `c1ccc(N=Nc2cn[nH]c2-c2ccco2)cc1` ; Potency = 9.2 µM (active)

Data point: `O=C(Nc1cc2nn(-c3ccccc3)nc2cc1Cl)c1ccco1` ; Potency = 1.64 µM (active)

Data point: `c1ccc(CSc2nccc(-c3ccco3)n2)cc1` ; Potency = 20.6 µM (active)

Data point: `CC(C)N(C(=O)COC(=O)c1ccccc1C(=O)c1ccc(Cl)c([N+](=O)[O-])c1)C(C)C` ; Potency = 18.4 µM (active)

Data point: `COc1ccc(Cl)cc1-c1nc(-c2ccncc2)no1` ; Potency = 4.61 µM (active)

---

- ASSAY COMMENT: qHTS of Nrf2 Activators: Hit Validation in Primary Assay
- CONDITION LABEL: Nrf2/ARE reporter cell assay; activation; series mostly up to 46.1 µM
In all, about 1,100 compounds went through this assay and about 860 (78%) were called active. Another 19% or so got no clear call; they are omitted. The set was probably picked from earlier hits. This is one part of the list.
MEASURED METRIC: Potency

Answered cases to consult:
Cc1sc2ncnc(NCc3ccco3)c2c1C :: 3.66 µM (active)
CCc1cc2c(NCc3ccco3)ncnc2s1 :: 3.66 µM (active)
O=c1cc(-c2ccccc2)nc2c(Cl)cc(Cl)cn12 :: 3.66 µM (active)

Data point: `O=C(CSc1ncnc2c1oc1ccccc12)NCc1ccco1` ; Potency = 13 µM (active)

Data point: `Oc1ccc(Cl)cc1N=Cc1sc2ccccc2c1Cl` ; Potency = 6.51 µM (active)

Data point: `c1ccc(Cn2ncc3c(NCc4ccco4)ncnc32)cc1` ; Potency = 2.06 µM (active)

Data point: `COc1ccc2[nH]c3c(NCc4ccco4)ncnc3c2c1` ; Potency = 2.59 µM (active)

---

- ASSAY COMMENT: qHTS of Nrf2 Activators: Hit Validation in Primary Assay; note: potency is the fitted concentration of half-maximal effect; nearly all actives have a fitted effect of over 70% in size
- CONDITION LABEL: Nrf2/ARE reporter cell assay; activation; series mostly up to 46.1 µM
The campaign covered roughly 1,100 compounds. About 860 (78%) were called active. Inconclusive results (about 19%) are left out. Calls follow the shape of the dose curve; as a rule, active = well fitted activation curve with a large enough effect; inconclusive = small, poorly fitted or top-dose-only effect; inactive = flat fitted curve, though single readings scatter. The set was probably picked from earlier hits. This is one part of the list.
// one of yes = active, no = inactive, no free text

Please review the entries below; each comes with its answer.
CC(=O)c1cc2c(cc1NC(=O)CSc1nc3ccccc3o1)OCO2 :: yes
Cc1ccc(Cc2c(-c3ccco3)nc3c(C)cc(Br)cn23)cc1 :: yes

Record lookup: outcome of this test for `O=C(CSc1nc2cc(Cl)ccc2s1)c1ccco1` ? yes

Record lookup: outcome of this test for `Clc1ccsc1-c1csc(-c2cccnc2)n1` ? yes

---

- ASSAY COMMENT: qHTS of Nrf2 Activators: Hit Validation in Primary Assay; note: potency is the fitted concentration of half-maximal effect; nearly all actives have a fitted effect of over 70% in size
- CONDITION LABEL: Nrf2/ARE reporter cell assay; activation; series mostly up to 46.1 µM
The whole screen tested about 1,100 compounds, of which about 860 (78%) were called active. Another 19% or so got no clear call; they are omitted. So high a share suggests a set chosen from earlier hits. The list shows a part of the results.
The entries below are paired with their reported Potency.

O=C(Nc1nccs1)c1cc(-c2ccco2)nc2ccccc12 :: 8.2 µM (active)
C/C(=N\NC(=O)c1c[nH]c2ccccc12)c1ccco1 :: 3.66 µM (active)
CCOC(=O)C(=Cc1ccccc1OC)C(=O)OCC :: 16.4 µM (active)
Nc1nc(Nc2cccc(Cl)c2)nc(NCCO)c1[N+](=O)[O-] :: 2.59 µM (active)

Data point: Oc1ccccc1C1CC(c2cccs2)=NC(c2ccc(Cl)cc2)N1 (stereo unspecified) ; Potency = 13 µM (active)

Data point: `CC(=O)c1sc(Nc2ccccc2)nc1C` ; Potency = 18.4 µM (active)

---

- ASSAY COMMENT: qHTS of Nrf2 Activators: Hit Validation in Primary Assay; note: potency is the fitted concentration of half-maximal effect; nearly all actives have a fitted effect of over 70% in size
- CONDITION LABEL: Nrf2/ARE reporter cell assay; activation; series mostly up to 46.1 µM
About 860 (78%) of roughly 1,100 compounds were called active. Inconclusive results (about 19%) are left out. The set was probably picked from earlier hits. The list shows a part of the results.
The entries below are paired with their reported Potency.

Data point: `COc1ccc(C(C#N)=C2C=CC(=NO)C=C2)cc1` ; Potency = 1.3 µM (active)

Data point: `CCOC(=O)c1c(NC(=O)/C=C/c2ccc(C)o2)sc(C)c1C` ; Potency = 3.26 µM (active)

Data point: `O=C(/C(C=Nc1ccc(F)cc1)=C(/O)c1ccco1)C(F)(F)F` ; Potency = 20.6 µM (active)

Data point: `Cc1ccc(N=C/C(C(=O)C(F)(F)F)=C(\O)c2ccco2)cc1Cl` ; Potency = 7.31 µM (active)

Data point: `COC(=O)c1ccc(Cl)cc1NC(=O)/C=C/c1ccc(C)o1` ; Potency = 2.06 µM (active)

---

- ASSAY COMMENT: qHTS of Nrf2 Activators: Hit Validation in Primary Assay; note: potency is the fitted concentration of half-maximal effect; nearly all actives have a fitted effect of over 70% in size
- CONDITION LABEL: Nrf2/ARE reporter cell assay; activation; series mostly up to 46.1 µM
Among all 1,100 compounds or so, about 860 (78%) were called active. Roughly 19% stayed inconclusive and do not appear here. The set was probably picked from earlier hits. The list shows a part of the results.
The entries below are paired with their reported Potency.

Answered cases to consult:
Brc1ccc2nc(-c3ccco3)c(Cc3ccsc3)n2c1 :: 20.6 µM (active)
COc1cc2c(c(Br)c1N)-c1cc(Br)c(N)cc1C2=O :: 4.11 µM (active)
COc1ccc(OC)c(NC(=O)C(C#N)=Cc2ccco2)c1 :: 6.51 µM (active)
Cc1nc(NC(=O)c2ccc(Br)o2)ccc1Br :: 9.2 µM (active)
O=C1N/C(=C\c2ccsc2)C(=O)N1Cc1ccc(F)cc1 :: 1.64 µM (active)
COc1ccccc1NC(=O)/C(C#N)=C/c1cccn1C :: 20.6 µM (active)
Cc1nn(-c2cccc(C(F)(F)F)c2)c(=O)c2ccccc12 :: 3.66 µM (active)
Cc1nc2sc(C(=O)c3ccccc3)c(N)c2c2c1CCCC2 :: 3.66 µM (active)
Cc1ccc(-c2nc(C=Nc3ccc(O)cc3)c(O)o2)cc1 :: 16.4 µM (active)
O=c1c(-c2ccco2)[n+]([O-])c2ccccc2n1OCc1c(F)cccc1F :: 0.58 µM (active)

Data point: `O=C(/C=C/c1cccs1)c1ccco1` ; Potency = 20.6 µM (active)

Data point: `Cc1cc(=O)n2nc(-c3ccccc3)sc2c1C#N` ; Potency = 4.11 µM (active)

Data point: `CCN(CC)CCNC(=O)C(Cl)=C1C(Cl)=C(Cl)C(Cl)=C1Cl` ; Potency = 3.66 µM (active)

Data point: `Cc1ccc(-c2nc3sc(C#N)c(N)n3c(=O)c2C#N)cc1` ; Potency = 8.2 µM (active)

Data point: `COc1cc(OC)cc(-c2nc3ccccc3s2)c1` ; Potency = 13 µM (active)

Data point: `CCOC(=O)COn1c(=O)c(-c2ccco2)[n+]([O-])c2ccccc21` ; Potency = 9.2 µM (active)

Data point: `Cc1c(CN(C)C)c2c(n1C)C(=O)c1ccc(Br)cc1-2` ; Potency = 5.17 µM (active)

Data point: `Cc1nnc2n1N=CC=C(c1ccccc1)S2` ; Potency = 3.66 µM (active)

Values compiled from PubChem BioAssay AID651593.
